Known pIC50 of a selection of compounds
experimental_target: TLR7 (Homo sapiens)
Sequence (Q9NYK1 27-1049): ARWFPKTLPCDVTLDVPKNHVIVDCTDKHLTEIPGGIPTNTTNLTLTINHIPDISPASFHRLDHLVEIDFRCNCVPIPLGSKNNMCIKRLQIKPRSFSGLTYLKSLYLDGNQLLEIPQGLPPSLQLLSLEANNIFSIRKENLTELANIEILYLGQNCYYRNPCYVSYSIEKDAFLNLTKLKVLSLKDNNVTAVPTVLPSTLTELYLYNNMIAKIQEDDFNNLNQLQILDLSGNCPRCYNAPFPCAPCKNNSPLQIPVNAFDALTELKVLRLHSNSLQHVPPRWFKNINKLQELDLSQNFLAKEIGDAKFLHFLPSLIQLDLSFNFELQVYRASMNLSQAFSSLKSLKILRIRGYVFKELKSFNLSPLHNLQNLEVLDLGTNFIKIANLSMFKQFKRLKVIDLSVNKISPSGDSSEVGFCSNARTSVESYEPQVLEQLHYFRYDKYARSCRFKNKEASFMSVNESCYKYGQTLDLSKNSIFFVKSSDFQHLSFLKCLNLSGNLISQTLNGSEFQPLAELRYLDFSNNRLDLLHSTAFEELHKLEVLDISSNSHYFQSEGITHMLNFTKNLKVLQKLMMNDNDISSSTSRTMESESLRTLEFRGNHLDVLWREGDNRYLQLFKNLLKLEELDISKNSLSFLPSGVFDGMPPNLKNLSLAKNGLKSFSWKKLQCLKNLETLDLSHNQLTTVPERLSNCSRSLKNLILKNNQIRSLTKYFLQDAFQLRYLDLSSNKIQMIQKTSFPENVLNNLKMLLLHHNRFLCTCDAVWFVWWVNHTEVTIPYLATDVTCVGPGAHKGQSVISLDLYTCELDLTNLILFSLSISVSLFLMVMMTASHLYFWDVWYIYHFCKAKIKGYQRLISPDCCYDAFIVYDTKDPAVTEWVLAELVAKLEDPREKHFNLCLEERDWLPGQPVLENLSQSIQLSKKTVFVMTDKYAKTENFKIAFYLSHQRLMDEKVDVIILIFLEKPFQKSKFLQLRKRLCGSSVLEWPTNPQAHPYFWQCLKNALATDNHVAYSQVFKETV
run_description: HEK/293 TLR7 Cell Assay
measurement_context: TLR7/NFKb HEK cells, R848 agonist 10 uM final concentration, Steady-Glo readout; read-out: TLR7 potency
pIC50: −log10 of the molar value. Where a name gives a salt, the structure may show the parent alone.
quantity_measured: pIC50

[[record]]
compound = "N#Cc1ccc(N2C[C@H](NC(=O)[C@@]3(F)CCNC3)C[C@H](C(F)(F)F)C2)c2cccnc12 (single isomer, unassigned) [Example 164]"
observed_measurement = "6.82 to 7.12"

[[record]]
compound = "Cc1ncc(N2C[C@@H](C)C[C@@H](NC(=O)CC3(N)CC3)C2)c2cccnc12 [Example 121]"
observed_measurement = "6.82 to 7.12"

[[record]]
compound = "C[C@H]1C[C@@H](NC(=O)CC2CCN(C(=O)NC(C)(C)CO)CC2F)CN(c2cnc(C#N)c3ncccc23)C1 (stereo partly drawn) [Example 149]"
observed_measurement = "< 6.82"

[[record]]
compound = "CN1CCN(CC(=O)N[C@@H]2C[C@H](C(F)(F)F)CN(c3ccc(C#N)c4ncccc34)C2)CC1 [Example 82]"
observed_measurement = "6.82 to 7.12"

[[record]]
compound = "Cc1ncc(N2C[C@H](NC(=O)C(F)C3CCNC3)C[C@H](C(F)(F)F)C2)c2cccnc12 (stereo partly drawn) [Example 137]"
observed_measurement = "> 7.12"

[[record]]
compound = "C[C@H]1C[C@@H](NCC2(O)CCOCC2)CN(c2ccc(C(F)(F)F)c3ncccc23)C1 [Example 50]"
observed_measurement = "> 7.12"

[[record]]
compound = "CN1CC[C@@](F)(CNC(=O)[C@@H]2CN(c3cnc(C#N)c4ncccc34)C[C@H](C(F)(F)F)O2)C1 (single isomer, unassigned) [Example 349]"
observed_measurement = "6.82 to 7.12"

[[record]]
compound = "Cc1c(F)cc(N2C[C@@H](C)C[C@@H](NC(=O)[C@@H](N)[C@@H](C)O)C2)c2cccnc12 [Example 134]"
observed_measurement = "6.82 to 7.12"

[[record]]
compound = "C[C@@H]1CN(c2cnc(C#N)c3ncccc23)C[C@H](CNC(=O)[C@@]2(F)CCNC2)O1 (single isomer, unassigned) [Example 336]"
observed_measurement = "> 7.12"

[[record]]
compound = "C[C@H]1C[C@@H](NC(=O)[C@@H](C)N2CCC(O)CC2)CN(c2ccc(C(F)(F)F)c3ncccc23)C1 (single isomer, unassigned) [Example 105]"
observed_measurement = "< 6.82"

[[record]]
compound = "CC(=O)NCCSC[C@H]1CN(c2cnc(C#N)c3ncccc23)C[C@@H](C)O1 [Example 374]"
observed_measurement = "< 6.82"

[[record]]
compound = "N#Cc1ccc(N2C[C@@H](C(F)(F)F)O[C@@H](C(=O)N3C[C@@H](N)C4(CC4)C3)C2)c2nccnc12 (single isomer, unassigned) [Example 311]"
observed_measurement = "> 7.12"

[[record]]
compound = "C[C@H]1C[C@@H](NC(=O)CC2(N)CC2)CN(c2ccc(C#N)c3nccnc23)C1 [Example 120]"
observed_measurement = "> 7.12"

[[record]]
compound = "C[C@@H]1CN(c2ccc(C#N)c3ncncc23)C[C@H](CNC(=O)[C@]2(F)CCNC2)O1 (single isomer, unassigned) [Example 345]"
observed_measurement = "> 7.12"

[[record]]
compound = "C[C@H]1C[C@@H](NCCN2CCNC2=O)CN(c2ccc(C(F)(F)F)c3ncccc23)C1 [Example 27]"
observed_measurement = "> 7.12"

[[record]]
compound = "C[C@@H]1CN(c2ccc(C#N)c3nccnc23)C[C@H](C(=O)NCC2CCS(=O)(=O)C2)O1 (stereo partly drawn) [Example 257]"
observed_measurement = "> 7.12"

[[record]]
compound = "CC(C)[C@H](O)C(=O)N[C@@H]1C[C@H](C)CN(c2cnc(C#N)c3nccnc23)C1 [Example 196]"
observed_measurement = "< 6.82"

[[record]]
compound = "CN1CCC(F)(CNC(=O)[C@@H]2CN(c3cnc(C#N)c4ncccc34)C[C@H](C(F)(F)F)O2)CC1 (single isomer, unassigned) [Example 351]"
observed_measurement = "> 7.12"

[[record]]
compound = "C[C@H]1C[C@@H](NC(=O)C[C@H]2CCNC[C@H]2F)CN(c2ccc(C#N)c3ncncc23)C1 [Example 132]"
observed_measurement = "> 7.12"

[[record]]
compound = "C[C@H]1C[C@@H](NC(=O)N[C@@H]2CCCNC2)CN(c2ccc(C(F)(F)F)c3ncccc23)C1 [Example 146]"
observed_measurement = "< 6.82"

[[record]]
compound = "C[C@@H]1CN(c2ccc(C#N)c3nccnc23)C[C@H](CN2CC[C@@H](O)C2)O1 [Example 221]"
observed_measurement = "> 7.12"

[[record]]
compound = "C[C@@H]1C[C@H](NC(=O)C[C@@H]2[C@@H]3C[C@H]2CN(C)C3)CN(c2ccc(C(F)(F)F)c3ncccc23)C1 [Example 107]"
observed_measurement = "> 7.12"

[[record]]
compound = "C[C@H]1C[C@@H](NC(=O)CC2(F)CCN(C)CC2)CN(c2ccc(C#N)c3nccnc23)C1 [Example 192]"
observed_measurement = "> 7.12"

[[record]]
compound = "CN1CCC(F)(CC(=O)N[C@@H]2C[C@H](C(F)(F)F)CN(c3ccc(C#N)c4ncncc34)C2)CC1 [Example 71]"
observed_measurement = "> 7.12"

[[record]]
compound = "C[C@@H]1CN(c2ccc(C#N)c3nccnc23)C[C@H](C(=O)N2C[C@H](N)C[C@H](C(F)(F)F)C2)O1 [Example 295, hydrochloride]"
observed_measurement = "> 7.12"

[[record]]
compound = "C[C@@H]1CN(c2cnc(C#N)c3ncccc23)C[C@H](CN2CCC(N3CCOCC3)CC2)O1 [Example 367]"
observed_measurement = "6.82 to 7.12"

[[record]]
compound = "C[C@@H]1CN(c2cnc(C(F)(F)F)c3ncccc23)C[C@H](CNC2CCS(=O)(=O)CC2)O1 [Example 384]"
observed_measurement = "> 7.12"

